targetEntity: full-length beta-Catenin (Uniprot ID P35222) (Homo sapiens)
Construct: 10 nM full-length beta-Catenin (Uniprot ID P35222)
testSummary: Fluorescence polarization IC50 (beta-catenin / 5FAM-TCF4 10-53 competition)
Type: binding
runParameters: read-out: FP EC50
pIC50: −log10 of the molar value.
# pIC50 per record follows

molecule	pIC50
CC(=O)N1CCC[C@]12CC=CCCCC1(CCCC=CCCCCCC[C@@](C)(C(=O)N[C@@H](Cc3ccccc3)C(=O)N[C@@H](Cc3csc4ccccc34)C(=O)N[C@@H](Cc3c[nH]cn3)C(N)=O)NC(=O)[C@H](CC(N)=O)NC(=O)[C@H](Cc3ccccc3)NC(=O)[C@H](C)NC(=O)[C@H](C)NC(=O)[C@H](CCC(=O)O)NC(=O)[C@H](CC(=O)O)NC1=O)NC(=O)[C@H](C)NC(=O)[C@H](CC(=O)O)NC2=O (stereo partly drawn) [I-422]	7.57
CC(=O)N1CCC[C@]12CC=CCCCC1(CCCC=CCCCCCC[C@@](C)(C(=O)N[C@@H](Cc3ccsc3)C(=O)N[C@@H](Cc3csc4ccccc34)C(=O)N[C@@H](Cc3c[nH]cn3)C(N)=O)NC(=O)[C@H](CC(N)=O)NC(=O)[C@H](Cc3ccccc3)NC(=O)[C@H](C)NC(=O)[C@H](C)NC(=O)[C@H](CCC(=O)O)NC(=O)[C@H](CC(=O)O)NC1=O)NC(=O)[C@H](C)NC(=O)[C@H](CC(=O)O)NC2=O (stereo partly drawn) [I-515]	7.27
CC[C@H](C)[C@H](NC(=O)[C@H](CCC(N)=O)NC(=O)[C@H](Cc1csc2ccccc12)NC(=O)[C@H](Cc1ccccc1)NC(=O)[C@]1(C)CCCCCCC=CCCCC2(CCCC=CC[C@]3(CCCN3C(C)=O)C(=O)N[C@@H](CC(=O)O)C(=O)N[C@@H](CC(C)C)C(=O)N2)C(=O)N[C@@H](CC(=O)O)C(=O)N[C@@H](CCC(=O)O)C(=O)N[C@@H](C)C(=O)N[C@@H](C)C(=O)N[C@@H](Cc2ccccc2)C(=O)N[C@@H](CC(N)=O)C(=O)N1)C(N)=O (stereo partly drawn) [I-733]	5.37

====

targetEntity: full-length beta-Catenin (Uniprot ID P35222) (Homo sapiens, UniProt P35222)
Construct: 10 nM full-length beta-Catenin (Uniprot ID P35222)
Sequence (P35222 1-781): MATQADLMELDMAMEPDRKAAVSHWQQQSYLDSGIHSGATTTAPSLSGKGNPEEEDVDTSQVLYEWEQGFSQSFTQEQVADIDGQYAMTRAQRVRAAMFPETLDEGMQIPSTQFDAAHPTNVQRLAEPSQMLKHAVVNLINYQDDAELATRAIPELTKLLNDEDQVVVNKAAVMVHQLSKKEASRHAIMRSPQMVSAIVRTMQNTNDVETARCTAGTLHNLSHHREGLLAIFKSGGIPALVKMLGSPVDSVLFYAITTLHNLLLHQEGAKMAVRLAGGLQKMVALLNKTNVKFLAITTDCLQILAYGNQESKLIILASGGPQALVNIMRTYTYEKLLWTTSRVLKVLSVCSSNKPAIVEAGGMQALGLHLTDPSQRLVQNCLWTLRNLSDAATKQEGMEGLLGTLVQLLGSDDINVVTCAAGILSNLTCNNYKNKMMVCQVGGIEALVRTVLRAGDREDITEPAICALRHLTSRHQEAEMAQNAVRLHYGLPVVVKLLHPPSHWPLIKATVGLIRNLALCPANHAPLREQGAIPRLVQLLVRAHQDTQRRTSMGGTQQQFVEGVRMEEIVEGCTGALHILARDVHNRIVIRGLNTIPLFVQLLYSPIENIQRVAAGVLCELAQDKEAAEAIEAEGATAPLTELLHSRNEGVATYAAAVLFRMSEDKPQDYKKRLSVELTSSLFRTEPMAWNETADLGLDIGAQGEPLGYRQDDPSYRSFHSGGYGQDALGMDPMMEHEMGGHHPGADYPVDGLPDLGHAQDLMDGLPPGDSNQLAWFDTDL
testSummary: Fluorescence polarization IC50 (beta-catenin / 5FAM-TCF4 10-53 competition)
Format: binding
runParameters: fluorescence polarization; read-out: beta-Catenin FP IC50
valueKind: IC50 (nM)

compound	endpointValue
CC[C@H](C)[C@@H]1NC(=O)[C@H](CC(=O)O)NC(=O)[C@]2(CC=CCCCC3(CCCC=CCCCCCC[C@@](C)(C(=O)N[C@@H](Cc4ccccc4)C(=O)N[C@@H](Cc4csc5ccccc45)C(=O)N[C@H](C(N)=O)[C@@H](C)O)NC(=O)[C@H](CCC(N)=O)NC(=O)[C@H](Cc4ccccc4)NC(=O)[C@H](C)NC(=O)[C@H](C)NC(=O)[C@H](CCC(=O)O)NC(=O)[C@H](CC(=O)O)NC3=O)NC1=O)CCCN2C(C)=O (stereo partly drawn) [I-641]	122
CC(=O)N1CCC[C@]12CC=CCCCC1(CCCC=CCCCCCC[C@@](C)(C(=O)N[C@@H](Cc3cccc(F)c3)C(=O)N[C@@H](Cc3csc4ccccc34)C(=O)N[C@@H](CCC(N)=O)C(N)=O)NC(=O)[C@H](CCC(N)=O)NC(=O)[C@H](Cc3ccsc3)NC(=O)[C@H](C)NC(=O)[C@H](C)NC(=O)[C@H](CCC(=O)O)NC(=O)[C@H](CC(=O)O)NC1=O)NC(=O)[C@H](C)NC(=O)[C@H](CC(=O)O)NC2=O (stereo partly drawn)	146
CC(=O)N1CCC[C@]12CC=CCCCC1(CCCC=CCCCOC(=O)N3CC[C@@](C(=O)N[C@@H](Cc4ccsc4)C(=O)N[C@@H](Cc4csc5ccccc45)C(=O)N[C@@H](CCC(N)=O)C(N)=O)(C3)NC(=O)[C@H](Cn3cc(CN4CCOCC4)nn3)NC(=O)[C@H](Cc3ccccc3)NC(=O)[C@H](C)NC(=O)[C@H](C)NC(=O)[C@H](CN(CC(=O)O)CC(F)(F)F)NC(=O)[C@H](CC(=O)O)NC1=O)NC(=O)[C@H](CC(C)(C)C)NC(=O)[C@H](CC(=O)O)NC2=O (stereo partly drawn) [I-1865]	10

====

targetEntity: full-length beta-Catenin (Uniprot ID P35222) (Homo sapiens)
Construct: 10 nM full-length beta-Catenin (Uniprot ID P35222)
testSummary: Fluorescence polarization IC50 (beta-catenin / 5FAM-TCF4 10-53 competition)
Type: binding
runParameters: fluorescence polarization; read-out: beta-Catenin FP IC50
Measured IC50 of individual entries

compound	targetEntity	IC50 (nM)
CC(=O)N1CCC[C@]12CC=CCCCC1(CCCC=CCCCOC(=O)N3CC[C@@](C(=O)N[C@@H](Cc4ccsc4)C(=O)N[C@@H](Cc4csc5ccccc45)C(=O)N[C@@H](CCC(N)=O)C(N)=O)(C3)NC(=O)[C@H](CC(N)=O)NC(=O)[C@H](Cc3ccccc3)NC(=O)[C@H](C)NC(=O)[C@H](C)NC(=O)[C@H](Cc3cccc(C(=O)O)c3)NC(=O)[C@H](CC(N)=O)NC1=O)NC(=O)[C@H](CC(C)(C)C)NC(=O)[C@H](CC(=O)O)NC2=O (some centres unmarked)	full-length beta-Catenin (Uniprot ID P35222) (Homo sapiens)	7
CC(=O)N1CCC[C@]12CC=CCCCC1(CCCC=CCCCOC(=O)N3CC[C@@](C(=O)N[C@@H](Cc4ccsc4)C(=O)N[C@@H](Cc4csc5ccccc45)C(=O)N[C@@H](CCC(N)=O)C(N)=O)(C3)NC(=O)[C@H](CC(C)C)NC(=O)[C@H](Cc3ccccc3)NC(=O)[C@H](CCCCNC(=O)COCCOCCNC(=O)C34CC5(C)CC(C)(CC(C)(C5)C3)C4)NC(=O)[C@H](C)NC(=O)[C@H](CC(=O)O)NC(=O)[C@H](CC(=O)O)NC1=O)NC(=O)[C@H](CC(C)(C)C)NC(=O)[C@H](CC(=O)O)NC2=O (some centres unmarked)	full-length beta-Catenin (Uniprot ID P35222) (Homo sapiens)	16

====

targetEntity: beta-catenin/TCF4 engagement (Homo sapiens, UniProt P35222)
Construct: expressed in transfected cells; host or cells: HEK293
testSummary: Nano-BRET target engagement assay (B-cat-Halo & TCF4-Luc in HEK293 cells)
Assay type: cell-based
runParameters: absolute IC50; read-out: NanoBRET Abs IC50
pIC50: −log10 of the molar value.
valueKind: pIC50

molecule	targetEntity	relationOperator	endpointValue
CC(=O)N1CCC[C@]12CC=CCCCC1(CCCC=CCCCOC(=O)N3CC[C@@](C(=O)N[C@@H](Cc4ccsc4)C(=O)N[C@@H](Cc4csc5ccccc45)C(=O)N[C@@H](CCC(N)=O)C(N)=O)(C3)NC(=O)[C@H](CC(N)=O)NC(=O)[C@H](Cc3ccccc3)NC(=O)[C@H](C)NC(=O)[C@H](C)NC(=O)[C@H](CC(=O)O)NC(=O)[C@H](CC(=O)O)NC1=O)NC(=O)[C@H](CC(C)C)NC(=O)[C@H](CC(=O)O)NC2=O (some centres unmarked) [I-689]	beta-catenin/TCF4 engagement (Homo sapiens, UniProt P35222)	=	4.47
CC(=O)N1CCC[C@]12CC=CCCCC1(CCCC=CCCCOC(=O)N3CC[C@@](C(=O)N[C@@H](Cc4ccccc4C(F)(F)F)C(=O)N[C@@H](Cc4csc5ccccc45)C(=O)N[C@@H](C)C(N)=O)(C3)NC(=O)[C@H](CC(C)C)NC(=O)[C@H](Cc3ccccc3)NC(=O)[C@H](C)NC(=O)[C@H](CCC(N)=O)NC(=O)[C@H](Cn3cc(CC(C)(C)C(=O)O)nn3)NC(=O)[C@H](CC(=O)O)NC1=O)NC(=O)[C@H](CC(C)(C)C)NC(=O)[C@H](CC(=O)O)NC2=O (some centres unmarked)	beta-catenin/TCF4 engagement (Homo sapiens, UniProt P35222)	=	5.30
CC(=O)N1CCC[C@]12CC=CCCCC1(CCCC=CCCCOC(=O)N3CC[C@@](C(=O)N[C@@H](Cc4ccsc4)C(=O)N[C@@H](Cc4csc5ccccc45)C(=O)N[C@@H](CCC(N)=O)C(N)=O)(C3)NC(=O)[C@H](CC(N)=O)NC(=O)[C@H](Cc3ccccc3)NC(=O)[C@H](C)NC(=O)[C@H](C)NC(=O)[C@H]([C@@H](C)O)NC(=O)[C@H](CC(N)=O)NC1=O)NC(=O)[C@H](CC(C)(C)C)NC(=O)[C@H](CC(=O)O)NC2=O (some centres unmarked) [I-1565]	beta-catenin/TCF4 engagement (Homo sapiens, UniProt P35222)	<	4.70
CC(=O)N1CCC[C@]12CC=CCCCC1(CCCC=CCCCOC(=O)N3CC[C@@](C(=O)N[C@@H](Cc4ccccc4C(F)(F)F)C(=O)N[C@@H](Cc4csc5ccccc45)C(=O)N[C@@H](CCC(N)=O)C(=O)N[C@@H](C)C(=O)N[C@@H](C)C(N)=O)(C3)NC(=O)[C@H](CC(C)C)NC(=O)[C@H](Cc3ccccc3)NC(=O)[C@H](C)NC(=O)[C@H](C)NC(=O)[C@H](Cc3cccc(C(=O)O)c3)NC(=O)[C@H](CC(=O)O)NC1=O)NC(=O)[C@H](CC(C)(C)C)NC(=O)[C@H](CC(=O)O)NC2=O (some centres unmarked)	beta-catenin/TCF4 engagement (Homo sapiens, UniProt P35222)	=	5.55
CC(=O)N1CCC[C@]12CC=CCCCC1(CCCC=CCCCOC(=O)N3CC[C@@](C(=O)N[C@@H](Cc4ccccc4Br)C(=O)N[C@@H](Cc4csc5ccccc45)C(=O)N[C@@H](CCC(N)=O)C(N)=O)(C3)NC(=O)[C@H](CC(N)=O)NC(=O)[C@H](Cc3ccccc3)NC(=O)[C@H](C)NC(=O)[C@H](C)NC(=O)[C@H](CC(=O)O)NC(=O)[C@H](CC(=O)O)NC1=O)NC(=O)[C@H](CC(C)(C)C)NC(=O)[C@H](CC(=O)O)NC2=O (some centres unmarked)	beta-catenin/TCF4 engagement (Homo sapiens, UniProt P35222)	=	4.93
